System: MOLM/13
Assay: IC50 (cell viability) (log10 M)
Conditions: 4 days
Measured metric: IC50 (log10 M)

[A] CO[C@@H]1[C@H](N(C)C(=O)c2ccccc2)C[C@H]2O[C@]1(C)n1c3ccccc3c3c4c(c5c6ccccc6n2c5c31)C(=O)NC4
[B] CN1CCN(CCOc2cc(OC3CCOCC3)c3c(Nc4c(Cl)ccc5c4OCO5)ncnc3c2)CC1
In: Select one: A or B . Criterion: greater recorded IC50 (log10 M). # respond with the chosen item's label
Out: B

====

Collected area under dose-response curve values appear next to each entry.
Tested on: NB4
Experiment: area under dose-response curve (cell viability) (AUC (arbitrary, % viability x log concentration)); higher = less sensitive (more viable)
Conditions: 4 days
Lab note: record just the number, no unit beside it.

In: Identify measured area under dose-response curve corresponding to COc1cc2c(N3CCN(C(=O)Nc4ccc(OC(C)C)cc4)CC3)ncnc2cc1OCCCN1CCCCC1 [Tandutinib]
Out: 588
